Documented Analgesic PQW % Inhibition of Writhing across a set of molecules
System: phenyl-para-quinone induced writhing
assayRemarks: phenyl-para-quinone writhing assay in mice (Analgesic PQW)
Assay type: in vivo
conditionDescription: 20 mg/kg, s.c.

{"molecule": "CCCCCCCCCCCCCCCC(O)CCCOP(=O)([O-])OCC[N+]1(C)CCCC1 (stereo not shown) [hydrate]", "testTarget": "phenyl-para-quinone induced writhing", "Analgesic PQW % Inhibition of Writhing, %": 62}
{"molecule": "C[N+](C)(C)CCOP(=O)([O-])OCCCC(O)CCCCCCCCCOc1ccccc1 (stereo not shown) [dihydrate]", "testTarget": "phenyl-para-quinone induced writhing", "Analgesic PQW % Inhibition of Writhing, %": 48}
{"molecule": "CCCCCCCCCCCCCCCC(CCCOP(=O)([O-])OCC[N+](C)(C)C)OCc1ccccc1 (stereo not shown) [monohydrate]", "testTarget": "phenyl-para-quinone induced writhing", "Analgesic PQW % Inhibition of Writhing, %": 36}
{"molecule": "CCCCCCCCCC(CCCOP(=O)([O-])OCC[N+](C)(C)C)OCc1ccccc1 (stereo not shown) [monohydrate]", "testTarget": "phenyl-para-quinone induced writhing", "Analgesic PQW % Inhibition of Writhing, %": 83}
